Where do these numbers come from? They come from patent US8148388B2.

systemUnderTest: EGFR-kinase domain (Homo sapiens, UniProt P00533)
Sequence (P00533 712-979 limits assumed): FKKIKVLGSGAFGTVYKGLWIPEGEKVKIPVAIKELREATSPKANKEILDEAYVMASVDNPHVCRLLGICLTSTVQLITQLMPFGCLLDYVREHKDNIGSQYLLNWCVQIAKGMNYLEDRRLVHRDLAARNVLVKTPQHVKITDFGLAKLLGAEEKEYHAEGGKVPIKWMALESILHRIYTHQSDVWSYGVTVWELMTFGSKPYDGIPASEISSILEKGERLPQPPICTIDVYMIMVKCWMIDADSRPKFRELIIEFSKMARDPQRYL
valueType: IC50

Completed entries (count: 5):
| compound | IC50 |
| --- | --- |
| O=C1COc2cccc(c2)Nc2cc(ncn2)Nc2cccc(c2)OCCCCCNC(=O)C(Cc2cccnc2)N1 (stereo not drawn) | 1000 to 10000 nM |
| CN1Cc2cccc(c2)Nc2cc(ncn2)Nc2ccccc2OCCCCCNC(=O)CCN2CCC1CC2 | 1000 to 10000 nM |
| CCN1CCC(=O)NCCOc2cc(ccc2OC)Nc2cc(ncn2)Nc2ccc(Cl)c(c2)C1 | 1000 to 10000 nM |
| C#CCC1NC(=O)CN(C)Cc2cccc(c2)Nc2cc(ncn2)Nc2cccc(c2)CNC1=O (stereo not drawn) | < 1000 nM |
| COc1ccc2cc1OCCNC(=O)C1CCCCN1Cc1cc(ccc1Cl)Nc1cc(ncn1)N2 (racemic) | 1000 to 10000 nM |

Input: # returns recorded IC50 (system: EGFR-kinase domain (Homo sapiens, UniProt P00533)) for COc1ccc2cc1OCCNC(=O)CC(CC(C)C)NC(=O)COc1ccc(cc1)Nc1cc(ncn1)N2 (stereo not drawn)
Output: 1000 to 10000 nM

Input: For EGFR-kinase domain (Homo sapiens, UniProt P00533), provide IC50 of "COc1ccc2cc1OCCNC(=O)CCCN(C)Cc1cc(ccc1Cl)Nc1cc(ncn1)N2" please.
Output: 1000 to 10000 nM

Input: Param readout= IC50; system= EGFR-kinase domain (Homo sapiens, UniProt P00533); entry= CCN1CCNC(=O)C(Cc2ccc(C(F)(F)F)cc2)NC(=O)CN(C)Cc2cccc(c2)Nc2cc(ncn2)Nc2cccc(c2)C1 (stereo not drawn) ; returns value.
Output: < 1000 nM

Input: Give the reported IC50 for CCN1CCNC(=O)C(CC(C)C)NC(=O)CN(C)Cc2cccc(c2)Nc2cc(ncn2)Nc2cccc(c2)C1 (stereo not drawn) (system: EGFR-kinase domain (Homo sapiens, UniProt P00533)).
Output: 1000 to 10000 nM

Input: Form entry - test system: EGFR-kinase domain (Homo sapiens, UniProt P00533); read-out: IC50; compound: CCN1CCNC(=O)C2CN(CCO2)C(=O)COc2ccc(cc2)Nc2cc(ncn2)Nc2cccc(c2)C1 (stereo not drawn)
Output: < 1000 nM

Input: Param readout = IC50; param system = EGFR-kinase domain (Homo sapiens, UniProt P00533); param query = CN(C)CCCCC1NC(=O)CN(C)Cc2cccc(c2)Nc2cc(ncn2)Nc2cccc(c2)CNC1=O (stereo not drawn) ; response: value
Output: < 1000 nM

Input: Request body: readout IC50, system EGFR-kinase domain (Homo sapiens, UniProt P00533), query COc1ccc2cc1OCCNC(=O)C(CCSC)NC(=O)COc1cccc(c1)Nc1cc(ncn1)N2 (stereo not drawn) . Return the value.
Output: 1000 to 10000 nM

Input: EGFR-kinase domain (Homo sapiens, UniProt P00533) / IC50 / "O=C1COc2cccc(c2)Nc2cc(ncn2)Nc2cccc(c2)CCN1" : value?
Output: < 1000 nM

Input: API: value(readout= IC50, system= EGFR-kinase domain (Homo sapiens, UniProt P00533), query= "CCN1CC(=O)NCCOc2cc(ccc2OC)Nc2cc(ncn2)Nc2ccc(Cl)c(c2)C1" )
Output: 1000 to 10000 nM

Input: Entry "O=C1CN2CCN(CC2)Cc2cccc(c2)Nc2cc(ncn2)Nc2cccc(c2)OCCCCCN1" , system EGFR-kinase domain (Homo sapiens, UniProt P00533): what IC50 was measured?
Output: < 1000 nM

Input: Identify the measured IC50 of COc1ccc2cc1OCCNC(=O)C1CCCN(C1)C(=O)COc1ccc(cc1)Nc1cc(ncn1)N2 (stereo not drawn) for EGFR-kinase domain (Homo sapiens, UniProt P00533).
Output: 1000 to 10000 nM

Input: For EGFR-kinase domain (Homo sapiens, UniProt P00533), provide IC50 of CCN1CCNC(=O)C(CC2CCCCC2)NC(=O)COc2ccc(cc2)Nc2cc(ncn2)Nc2cccc(c2)C1 (stereo not drawn) please.
Output: 1000 to 10000 nM

Input: What measured IC50 is associated with CC(C)CC1NC(=O)CN(C)Cc2cccc(c2)Nc2cc(ncn2)Nc2cccc(c2)CNC1=O (stereo not drawn) on EGFR-kinase domain (Homo sapiens, UniProt P00533)?
Output: < 1000 nM

Input: Could you share what IC50 was measured for "COc1ccc2cc1OCCNC(=O)COc1cccc(c1)Nc1cc(ncn1)N2" , tested on EGFR-kinase domain (Homo sapiens, UniProt P00533)?
Output: < 1000 nM

Input: Request body: readout IC50, system EGFR-kinase domain (Homo sapiens, UniProt P00533), query "O=C1CCN(CCN2CCOCC2)Cc2cccc(c2)Nc2cc(ncn2)Nc2cccc(c2)OCCCCN1" . Return the value.
Output: 1000 to 10000 nM

Input: Hello, I am looking for reported IC50 with EGFR-kinase domain (Homo sapiens, UniProt P00533) for "CCN1CC(=O)NCCCCCOc2ccccc2Nc2cc(ncn2)Nc2cccc(c2)C1" . Could you help?
Output: 1000 to 10000 nM

Input: State its IC50 on EGFR-kinase domain (Homo sapiens, UniProt P00533): COc1ccc2cc1OCCNC(=O)C(Cc1ccc(C(F)(F)F)cc1)NC(=O)CN(C)Cc1cccc(c1)Nc1cc(ncn1)N2 (stereo not drawn)
Output: < 1000 nM

Input: Hi! What's the reported IC50 for COCC1NC(=O)COc2cccc(c2)Nc2cc(ncn2)Nc2cccc(c2)OCCCCCNC1=O (stereo not drawn) on EGFR-kinase domain (Homo sapiens, UniProt P00533)?
Output: 1000 to 10000 nM

Input: Report IC50 for "CCN1CCNC(=O)COc2cccc(c2)Nc2cc(ncn2)Nc2cccc(c2)C1" tested on EGFR-kinase domain (Homo sapiens, UniProt P00533).
Output: < 1000 nM

====

systemUnderTest: UniProtKB P07333
Sequence (P07333 20-972): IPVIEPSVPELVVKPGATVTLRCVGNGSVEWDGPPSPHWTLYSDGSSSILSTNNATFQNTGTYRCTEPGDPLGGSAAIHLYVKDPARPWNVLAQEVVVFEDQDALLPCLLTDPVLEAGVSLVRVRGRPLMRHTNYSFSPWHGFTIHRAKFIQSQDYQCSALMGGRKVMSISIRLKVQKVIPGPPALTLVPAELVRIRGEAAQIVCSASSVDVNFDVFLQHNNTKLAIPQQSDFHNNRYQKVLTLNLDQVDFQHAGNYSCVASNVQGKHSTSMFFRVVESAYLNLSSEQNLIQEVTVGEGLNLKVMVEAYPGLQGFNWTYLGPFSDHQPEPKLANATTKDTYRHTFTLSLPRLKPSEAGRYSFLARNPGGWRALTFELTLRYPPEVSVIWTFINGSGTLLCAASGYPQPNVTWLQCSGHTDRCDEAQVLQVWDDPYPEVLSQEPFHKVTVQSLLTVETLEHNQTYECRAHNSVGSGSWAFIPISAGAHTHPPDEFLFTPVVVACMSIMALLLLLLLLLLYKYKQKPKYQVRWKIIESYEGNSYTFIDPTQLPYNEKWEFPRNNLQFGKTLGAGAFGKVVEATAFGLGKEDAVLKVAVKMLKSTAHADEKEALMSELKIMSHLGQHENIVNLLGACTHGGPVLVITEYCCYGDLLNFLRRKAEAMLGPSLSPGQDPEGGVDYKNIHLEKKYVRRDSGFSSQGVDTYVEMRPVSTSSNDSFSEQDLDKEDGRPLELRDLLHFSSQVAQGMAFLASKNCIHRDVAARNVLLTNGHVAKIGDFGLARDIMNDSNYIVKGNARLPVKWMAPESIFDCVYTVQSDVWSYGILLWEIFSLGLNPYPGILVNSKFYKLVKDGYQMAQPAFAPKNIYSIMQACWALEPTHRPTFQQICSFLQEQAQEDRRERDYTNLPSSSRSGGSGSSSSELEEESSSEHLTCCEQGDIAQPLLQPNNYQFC
assayProtocol: Fms human kinase assay (glass-fiber filter)
Format: biochemical
experimentalConditions: test concentration of 10^−6M; read-out: C7 score (inhibition of Fms human)
valueType: inhibition at 1 µM

Input: Suppose we examine the molecule "N#Cc1cnc2nc1Nc1cccc(c1)C(=O)NCCOc1cccc(c1)N2" ; what inhibition at 1 µM value has been reported?
Output: 30 to 60%

Input: Query: inhibition at 1 µM; subject: "O=C1NCCCCOc2cccc(c2)Nc2ccnc(n2)Nc2cccc1c2"
Output: 10 to 30%

Input: What value of measured inhibition at 1 µM is listed for "N#Cc1cnc2nc1Nc1cccc(c1)C(=O)NCCCCCOc1cccc(c1)N2" ?
Output: 30 to 60%

Input: What value of inhibition at 1 µM has been recorded for this entry: "N#Cc1cnc2nc1Nc1cccc(c1)OCCNC(=O)c1cccc(c1)N2"
Output: 10 to 30%

Input: I am curious: what inhibition at 1 µM value has been reported for "O=C1CNC(=O)CNC(=O)c2cccc(c2)Nc2cc(ncn2)Nc2cccc(c2)CN1" ?
Output: 60 to 80%

Input: Please report the recorded inhibition at 1 µM for "COc1ccc2c(c1)OCCCCCCOc1ccc(Cl)cc1Nc1cc(ncn1)N2" .
Output: 10 to 30%

Input: Find the recorded inhibition at 1 µM belonging to "N#Cc1cnc2nc1Nc1cccc(c1)OCC(=O)NCCCOc1cccc(c1)N2" and report it.
Output: 30 to 60%

Input: Look up inhibition at 1 µM for this molecule: "O=C1CCc2cccc(c2)Nc2cc(ncn2)Nc2cccc(c2)CN2CCN1CC2"
Output: 30 to 60%

Input: Report inhibition at 1 µM for "O=C1NCc2cccc(c2)Nc2ccnc(n2)Nc2cccc1c2" please.
Output: 10 to 30%

Input: Could you share which inhibition at 1 µM value was measured for "COc1ccc2cc1OCCCNC(=O)C(C)(C)NC(=O)Cc1ccc(Cl)cc1Nc1cc(ncn1)N2" ?
Output: 10 to 30%

Input: Quick check: inhibition at 1 µM of "O=C1COc2cccc(c2)Nc2nccc(n2)Nc2cccc(c2)OCCCN1" ?
Output: 10 to 30%

Input: Entry under review: "O=C1COc2cccc(c2)Nc2nccc(n2)Nc2cccc(c2)OCCCCN1" . Reported inhibition at 1 µM?
Output: 60 to 80%

Input: Recorded inhibition at 1 µM of CC(C)C1NC(=O)c2cccc(c2)Nc2cc(ncn2)Nc2cccc(c2)CNC(=O)CNC1=O (centres unmarked) , please.
Output: 10 to 30%

Input: Please look up its inhibition at 1 µM: "O=C1COc2cccc(c2)Nc2cc(ncn2)Nc2cccc(c2)CN2CCN1CC2"
Output: 30 to 60%

Input: Any idea what inhibition at 1 µM was measured for "N#Cc1cnc2nc1Nc1cccc(c1)OCC(=O)NCCCCOc1cccc(c1)N2" ?
Output: 30 to 60%

Input: Query: inhibition at 1 µM; subject: "O=C1NCCCCCOc2cccc(c2)Nc2ccnc(n2)Nc2cccc1c2"
Output: 10 to 30%
